# target_system: Class A carbapenemase KPC-2 (Escherichia coli)
# measurement_notes: Inhibition of beta lactamase KPC-2 in Escherichia coli 76 assessed as potentiation of meropenem-induced antibacterial activity by measuring meropenem MIC at 16 mg/L incubated for 18 hrs by broth dilution method (reference value: >[…] mg/L)
outcome_measure: MIC

- smi: "C[Si]1(C)OB(O)c2c(F)c3c(c(F)c21)B(O)OC3"
  result: "> 64 mg/L"
- smi: "OB(O)c1ccccc1"
  result: "32 mg/L"
- smi: "C[Si]1(C)OB(O)c2c(F)c(F)c(F)c(F)c21"
  result: "> 64 mg/L"
- smi: "C[Si]1(C)OB(O)c2cc3c(c(F)c21)COB3O"
  result: "> 64 mg/L"
- smi: "C[Si]1(C)OB(O)c2ccc(F)c(F)c21"
  result: "> 64 mg/L"
- smi: "C[Si]1(C)OB(O)c2ccc(B(O)O)cc21"
  result: "> 64 mg/L"
